Target: glucose nanosensor (not named in Example 9)
Details: read-out: affinity constant for glucose
parameter.measured: pKd
A value of pKd is the negative decimal logarithm of a concentration given in moles per litre.

I would be grateful if you could share the reported pKd for OC[C@H]1OC(O)[C@H](O)[C@@H](O)[C@@H]1O (stereo partly shown) .
3.22
